Where do these numbers come from? They come from patent US9017681B2.

Target: human sAC (Homo sapiens, UniProt Q96PN6)
Construct: made in house
Test: in vitro adenylyl cyclase assay with purified human sAC protein (cAMP by Correlate-EIA)
Type: biochemical
Details: 100 μM of compound; BASAL human sAC in vitro activity; read-out: % Inhibition (100 μM), hsACt-Basal
Method: Purified human sAC protein was used in an in vitro adenylyl cyclase assay. Purification of the protein is described in detail in Litvin et al. 2003. (J. Biol. Chem. 278:15922-15926). This paper also describes the general conditions for a sAC cyclase assay. The specific conditions for the in vitro assay are as follows. […] Cyclic AMP levels were measured in each sample using the Correlate-EIA Direct Cyclic AMP assay kit from Assay Designs as per manufacturers instructions.
measured_parameter: inhibition at 100 µM (%)

compound	inhibition at 100 µM [%]
C/C(=N\NC(=O)CSc1nc2ccccc2[nH]1)c1ccc([N+](=O)[O-])cc1	30
CC(Sc1nc2ccccc2[nH]1)C(=O)N/N=C/c1ccc([N+](=O)[O-])cc1 (stereo not drawn)	50

(P) O=C(CSc1nc2ccccc2[nH]1)N/N=C/c1cc(Br)ccc1F
(Q) O=C(CSc1nc2ccccc2[nH]1)NCCc1ccccc1
In: I would appreciate it if you could say which entry, P or Q , has the lower inhibition at 100 µM value. Answer with the label corresponding to your selection.
Out: Q
(Q: 0%, P: 60%)

(I) CCCOc1ccc(/C=N/NC(=O)CSc2nc3ccccc3[nH]2)cc1
(II) O=C(CSc1nc2ccccc2[nH]1)N/N=C/c1cccc2ccccc12
In: I would appreciate it if you could say which entry, I or II , has the lower inhibition at 100 µM value. Answer with the label corresponding to your selection.
Out: II

* * *

Collected IC50 values appear next to each entry.
Target: human sAC (Homo sapiens, UniProt Q96PN6)
Construct: made in house
Test: in vitro adenylyl cyclase assay with purified human sAC protein (cAMP by Correlate-EIA)
Type: biochemical
Conditions: BASAL activity of human sAC in vitro (just Mg-ATP, no calcium or bicarbonate); read-out: hsACt-Basal approximate IC50 (or the dose range where the IC50 should lie)

compound_structure	measured_parameter	result
Cn1c(SCC(=O)N/N=C/c2ccccn2)nc2ccccc21	IC50	> 100 µM

In: Return IC50 measured with human sAC (Homo sapiens, UniProt Q96PN6) given this molecule: C/C(=N/NC(=O)CSc1nc2ccccc2[nH]1)c1ccncc1
Out: > 100 µM

In: And what about the molecule O=C(CSc1nc2ccccc2n1Cc1ccccc1)N/N=C/c1cc(Br)ccc1O ?
Out: 1 to 10 µM

* * *

Target: human sAC (Homo sapiens, UniProt Q96PN6)
Construct: made in house
Sequence (Q96PN6 1-469 limits assumed): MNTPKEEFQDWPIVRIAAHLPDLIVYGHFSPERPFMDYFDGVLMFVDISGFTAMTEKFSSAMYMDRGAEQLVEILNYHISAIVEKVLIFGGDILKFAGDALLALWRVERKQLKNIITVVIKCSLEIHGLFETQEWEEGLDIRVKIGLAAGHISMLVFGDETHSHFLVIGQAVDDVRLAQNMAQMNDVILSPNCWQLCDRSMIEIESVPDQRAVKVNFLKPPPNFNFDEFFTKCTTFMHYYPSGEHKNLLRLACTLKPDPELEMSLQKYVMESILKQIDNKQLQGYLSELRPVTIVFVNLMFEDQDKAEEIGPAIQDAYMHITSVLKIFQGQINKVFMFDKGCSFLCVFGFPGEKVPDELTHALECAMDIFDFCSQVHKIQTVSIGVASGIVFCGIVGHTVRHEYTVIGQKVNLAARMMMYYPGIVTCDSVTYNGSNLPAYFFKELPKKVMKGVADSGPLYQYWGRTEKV
Test: in vitro adenylyl cyclase assay with purified human sAC protein (cAMP by Correlate-EIA)
Format: biochemical
Settings: 100 μM of compound; BASAL human sAC in vitro activity; read-out: % Inhibition (100 μM), hsACt-Basal
measured_parameter: inhibition at 100 µM (%)

(1) COc1ccc(/C=N/NC(=O)CSc2nc3ccccc3[nH]2)cc1Br
(2) C/C(=N\NC(=O)CSc1nc2ccccc2[nH]1)c1ccccc1
In: Returns: the argument ( 1 or 2 ) having the larger inhibition at 100 µM. Answer with the label corresponding to your selection.
Out: 1
(1: 75%, 2: 0%)

(1) O=C(CSc1nc2ccccc2[nH]1)N/N=C/c1cc(Br)cc(Br)c1O
(2) O=C(CSc1nc2ccccc2[nH]1)N/N=C/c1cc([N+](=O)[O-])ccc1Cl
In: Returns: the argument ( 1 or 2 ) having the larger inhibition at 100 µM. Answer with the label corresponding to your selection.
Out: 1
(1: 90%, 2: 0%)
